Assignment: determine reported peptide exchange yield for the given binders.
# assayedSystem: HLA-A*02 (human)
# assayNotes: UV-exchange b2m ELISA

stdin: Returns the measured peptide exchange yield for the input binder. Input: GIVAHIQEV
stdout: 50 to 75%

stdin: Another binder to check: SLDPSVTHL
stdout: 20 to 49%

stdin: Another binder to check: ALFAPLVHL
stdout: 50 to 75%

stdin: Another binder to check: ILAKDLFEI
stdout: > 75%

stdin: Another binder to check: ALISWQPPRA
stdout: 50 to 75%

stdin: Another binder to check: HLLEGSVGV
stdout: 50 to 75%

stdin: Another binder to check: GQASYFYVA
stdout: 20 to 49%

stdin: Another binder to check: YLMDDTVEI
stdout: > 75%

stdin: Another binder to check: ALFENTPKA
stdout: 20 to 49%

stdin: Another binder to check: QLAPVFQRV
stdout: 20 to 49%

stdin: Another binder to check: KLDGNELDL
stdout: 50 to 75%

stdin: Another binder to check: GLSQITNQL
stdout: 50 to 75%

stdin: Another binder to check: GIAGSLKTV
stdout: 50 to 75%

stdin: Another binder to check: YLLDPSITL
stdout: 50 to 75%

stdin: Another binder to check: FIIQGLRSVGA
stdout: 50 to 75%

stdin: Another binder to check: FLVDGSYSI
stdout: 50 to 75%

stdin: Another binder to check: SVLDSTAKV
stdout: 20 to 49%

stdin: Another binder to check: FTIFRTISV
stdout: 50 to 75%

stdin: Another binder to check: QLWQFLVTL
stdout: 50 to 75%

stdin: Another binder to check: AVGPVHNSV
stdout: 20 to 49%

stdin: Another binder to check: RLFPDFFTRVAL
stdout: 20 to 49%

stdin: Another binder to check: LLDSVSRL
stdout: < 20%

stdin: Another binder to check: FLFGGVLMTL
stdout: 20 to 49%

stdin: Another binder to check: SVDSHFQEV
stdout: 20 to 49%
